Data credit: the supplement of paper PMC8728848

Target: GlcNAc(b1-2)Man(a1-3)[GlcNAc(b1-2)Man(a1-6)]Man(b1-4)GlcNAc(b1-4)GlcNAc
Experiment: glycan array binding signal (z-score within array); higher = stronger binding
Conditions: glycan notation: IUPAC condensed, linker removed
Only a selection was taken, and the strongest signals are over-represented in it overall.
Tag: class 1 if measured glycan array binding signal (z-score) is not below 5, class 0 if it is.

State whether the measured glycan array binding signal (z-score) reaches 5, counting equality as reaching it, for Flo11 (Saccharomyces cerevisiae), Q1H8S8 (protein) MGSSHHHHHHSSGLVPRGSHMFPTALVPRGSSEGTSCNSIVNGCPNLDFNWHMDQQNIMQYTLDVTSVSWVQDNTYQITIHVKGKENIDLKYLWSLKIIGVTGPKGTVQLYGYNENTYLIDNPTDFTATFEVYATQDVNSCQVWMPNFQIQFEYLQGSAAQYASSWQWGTTSFDLSTGCNNYDNQGHSQTDFPGFYWNIDCDNNCGGTKSS
class 0

Is it the case that CD23 (Homo sapiens) (protein) MELQVSSGFVCNTCPEKWINFQRKCYYFGKGTKQWVHARYACDDMEGQLVSIHSPEEQDFLTKHASHTGSWIGLRNLDLKGEFIWVDGSHVDYSNWAPGEPTSRSQGEDCVMMRGSGRWNDAFCDRKLGAWVCDRLATCTPPASEGSAESMGPDSRPDPDGRLPTPSAPLHS has glycan array binding signal (z-score) reaching or exceeding 5?
class 0

State whether the measured glycan array binding signal (z-score) reaches 5, counting equality as reaching it, for CAA (Caragana arborescens) (protein) VAVEFDTFDNPDWDPRTKHIGIDVNSIRSNKTTQWGFWNRQVADVDISYEASSKTLNVSLYYPGESYIVTDVVDLKDILPEWVRIGF
class 1

Reported glycan array binding signal (z-score) at or above 5? MD-2 (Homo sapiens) (protein) MLPFLFFSTLFSSIFTEAQKQYWVCNSSDASISYTYCDKMQYPISINVNPCIELKGSKGLLHIFYIPRRDLKQLYFNLYITVNTMNLPKRKEVICRGSDDDYSFCRALKGETVNTTISFSFKGIKFSKGKYKCVVEAISGSPEEMLFCLEFVILHQPNSN
class 0

glycan array binding signal (z-score) >= 5 for XCL (Xerocomus chrysenteron) (protein) MSYSITLRVYQTNRDRGYFSIVEKTVWHFANGGTWSEANGAHTLTQGGSGTSGVLRFLSTKGERITVAVGVHNYKRWCDVVTGLKPDETALVINPQYYNNGGRDYVREKQLAEYSVTSAIGTKVEVVYTVAEGNNLEANVIFS ?
class 0
